This collection of values is drawn from PubChem BioAssay.

Reported inhibition values follow for various molecules
biological target: L-lactate dehydrogenase (Plasmodium falciparum (isolate CDC / Honduras)); assay: PfLDH activity inhibition – cell lysate, 3D7 strain, counter-screen for P. falciparum growth inhibition project (AID 2304);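 note: 0% = vehicle and 100% = reference inhibitor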; settings: P. falciparum 3D7 crude extract, LDH APAD/NBT absorbance; at 2 µM; active compounds read high
Use % as the unit, but write only the number.

{"MOLECULE": "CCN(CC)CCN(Cc1ccc(-c2ccc(C(F)(F)F)cc2)cc1)C(=O)Cn1nc(-c2ccc(C(F)(F)F)cc2)ccc1=O", "inhibition / %": -2}
{"MOLECULE": "CC1(C)N=C(N)N=C(N)N1OCCCOc1ccc(N)cc1", "inhibition / %": 1}
{"MOLECULE": "Cc1ccc(C(=O)Cn2nc(-c3ccc(C)c(S(=O)(=O)N4CCCCC4)c3)ccc2=O)cc1", "inhibition / %": -5}
{"MOLECULE": "COc1ccc(-c2nc(NC(=O)CS(=O)(=O)c3ccc(F)cc3)sc2C)cc1", "inhibition / %": -3}
{"MOLECULE": "NC(=NCCCCCCCCN=C(N)Nc1ccc(Cl)cc1)Nc1ccc(Cl)cc1", "inhibition / %": -5}
{"MOLECULE": "O=C(/C=C/c1ccc(Cl)c(Cl)c1)NCCCCCN1CCC(NC(=O)Nc2ccc(Cl)cc2Cl)CC1", "inhibition / %": -2}
{"MOLECULE": "N#CCCN1CCN(Cc2cccc(-c3ccc(-c4nc5ccc(F)cc5[nH]4)cc3)c2)CC1", "inhibition / %": -2}
{"MOLECULE": "CN(C)CCOc1cc(NC(=O)Nc2ccc(-c3ccncc3)c3ccccc23)ccc1I", "inhibition / %": -3}

Query string: Fill in the recorded inhibition for this molecule, with L-lactate dehydrogenase (Plasmodium falciparum (isolate CDC / Honduras)) as test system: CN1CCN(CC(O)CNC(=O)Nc2ccc(Br)cc2)CC1 (stereo not given)
Result string: -2

Query string: Form entry - test system: L-lactate dehydrogenase (Plasmodium falciparum (isolate CDC / Honduras)); read-out: inhibition; molecule: Cc1ccc(S(=O)(=O)/N=C(\N)NC(N)=O)cc1
Result string: 1

---

target: Protein kinase 7 (PK7), Plasmodium falciparum 3D7 (PF3D7_0213400) (UniProt Q7YTF7); assay: inhibition of Plasmodium PK7 catalytic activity – biochemical, TCAMS antimalarial set, Kinase-Glo luminescence (AID 1159587); conditions: recombinant PfPK7, Kinase-Glo ATP depletion luminescence
Calls of active or inactive are those of the source. How the calls were made is not given here.
ASSAY ENDPOINT: outcome

{"COMPOUND": "c1ccc(-c2ccc(CNCc3ccc(-c4cccc(-c5nc6ccccc6[nH]5)c4)cc3)s2)nc1", "TEST RESULT": "inactive"}
{"COMPOUND": "O=C(O)C[C@H](NC(=O)c1cc(-c2ccc3c(c2)OCO3)no1)C(=O)O (tested in a mixture with another compound)", "TEST RESULT": "inactive"}
{"COMPOUND": "COc1ccc(CCCc2nc(N)nc(N)c2-c2ccc(Cl)cc2)cc1", "TEST RESULT": "inactive"}
{"COMPOUND": "FC(F)(F)c1ccc2nc(-c3ccc(-c4ccc(CN5CCN(c6ccncc6)CC5)cc4)s3)[nH]c2c1", "TEST RESULT": "inactive"}

---

Let's look at some compounds and their measured growth inhibition.
assay: antimalarial activity against Dd2 strain (AID 2302);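 note: 0% = DMSO untreated growth and 100% = chloroquine plus artemisinin killed control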; conditions: P. falciparum Dd2 in RBCs, LDH growth readout, 72 h; at 2 µM; active compounds read high
Value expressed in %; do not type the unit.

Query string: What does the record list as growth inhibition for Nc1nc(N)c2c(ccc3c2ccn3CCCCO)n1 ?
Result string: 49

Query string: Param item = O=C(NC1CCC(N2CCC(Cc3ccc(F)cc3)CC2)CC1)c1cc2ccccc2[nH]1 (stereo not given) ; retrieve measured growth inhibition.
Result string: 39
